target: T1, AAV5 (adeno-associated virus serotype 5); test: SPR, AAV on CM5 chip;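 also: surface plasmon resonance with AAV amine-coupled to the chip as ligand, nanobodies injected as analyte over a concentration series, rate constants and affinity fitted from binding curves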
T1 construct: also called adeno-associated virus serotype 5

binder	unit.text	Kd
A4-111 (VHH) VHH: VQLQESGGGLAQPGGSLRLSCAASGSNFSINTMGWYRQRAGKQREFVATITRGGSTNYGDSVKGRFTISRDNAKTTVYLQMNSLRPEDTAVYYCHLDEVRESTWTTSNLWGQGTQVTVSS	nM	1.06
A4-103 (VHH) VHH: VQLQESGGGLVQPGGSLRLSCAASGSIFSLNAMGWYRQAPGKQRELVATITRGGSTNYADSVKGRFTISRDNAKNTVYLQMNSLRPEDTAVYYCHVDEVRESIWTTSNLWGQGTQVTVSS	nM	26.9
A4-102 (VHH) VHH: VQLQESGGGLVQPGGSLRLSCAASGSHFTINSVGWYRQAPGKQRELVAPVTRGGTTNYADFVKGRFTISRDNAKNTVYLQMNSLRPEDTAVYYCHVDELRDSSWTTSNLWGQGTQVTVSS	nM	40.4
A4-108 (VHH) VHH: VQLQESGGGLAQPGGSLRLSCLASGSGFSINTMGWYRQAPPKWRELVATVTRGGSTNYAGSVKGRFTISRDNPKNTVYLQMNSLRPEDTAVYYCHLDEVRQSTWTTSNIWGQGTQVTVSS	nM	7.12
A4-107 (VHH) VHH: VQLQESGGGLVQPGGSLRLSCIASGSGFSINTVGWYRQAPAKQRELVATLTRGGSTNYADSVKGRFTISRDNPKNTVYLQMNSLRPEDTAVYYCHVDEVRQSSWTTSNIWGQGTQVTVSS	nM	703
A4-106 (VHH) VHH: VQLQESGGGLVQPGGSLRLSCIASGSIFSLNAMGWYRQAPGKQRELVATITSGGSTNYADSVKGRFTISRDNAKNTAYLQMNNLQPEDTAVYYCHVDEVRESIWTTSNLWGQGTQVTVSS	nM	2.12
A4-101 (VHH) VHH: VQLQESGGGLVQPGGSLRLSCAASGSRFSINIMGWYRQAPGKQRELVASVTRGGTTNYADSVKGRFTISRDNPKNTIYLQMNSLRPEDTAVYYCHVDEIRESTWTTSNLWGQGTQVTVSS	nM	70.8
A4-113 (VHH) VHH: VQLQESGGGLVQTGGSLRLSCVASGSRFSINTVGWYRQAPGKQRELVATVTRGGSTWYAGSVKGRFTISRDNTKNTIYLQMNSLRPEDTAVYYCHVDEIRQSTWTTSNLWGQGTQVTVSS	nM	218
